Target: Ecdysone receptor (Drosophila melanogaster, UniProt P20153+P34021)
Sequence (P34021 whole entry): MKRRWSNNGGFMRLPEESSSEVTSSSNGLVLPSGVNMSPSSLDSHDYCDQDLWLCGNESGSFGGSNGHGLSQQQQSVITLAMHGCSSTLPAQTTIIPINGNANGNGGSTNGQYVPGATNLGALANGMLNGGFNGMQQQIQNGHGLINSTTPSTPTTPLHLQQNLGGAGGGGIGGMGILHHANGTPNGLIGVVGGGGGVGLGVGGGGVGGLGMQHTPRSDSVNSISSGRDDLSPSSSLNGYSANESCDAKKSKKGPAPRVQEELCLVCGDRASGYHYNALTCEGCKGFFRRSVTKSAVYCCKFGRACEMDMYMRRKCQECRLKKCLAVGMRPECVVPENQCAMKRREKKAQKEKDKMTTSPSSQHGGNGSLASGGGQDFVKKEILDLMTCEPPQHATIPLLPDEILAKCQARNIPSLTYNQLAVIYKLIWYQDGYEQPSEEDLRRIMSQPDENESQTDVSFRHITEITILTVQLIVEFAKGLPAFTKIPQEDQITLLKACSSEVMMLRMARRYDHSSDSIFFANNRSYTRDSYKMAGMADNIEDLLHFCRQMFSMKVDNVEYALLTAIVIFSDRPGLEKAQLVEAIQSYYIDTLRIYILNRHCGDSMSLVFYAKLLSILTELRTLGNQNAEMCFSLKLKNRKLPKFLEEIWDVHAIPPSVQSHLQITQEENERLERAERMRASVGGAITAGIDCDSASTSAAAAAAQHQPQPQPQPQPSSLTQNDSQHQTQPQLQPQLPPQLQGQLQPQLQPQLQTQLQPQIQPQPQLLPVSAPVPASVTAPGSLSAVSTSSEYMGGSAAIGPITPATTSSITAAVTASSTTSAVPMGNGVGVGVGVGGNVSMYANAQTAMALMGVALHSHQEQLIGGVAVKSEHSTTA
Sequence (P20153 whole entry): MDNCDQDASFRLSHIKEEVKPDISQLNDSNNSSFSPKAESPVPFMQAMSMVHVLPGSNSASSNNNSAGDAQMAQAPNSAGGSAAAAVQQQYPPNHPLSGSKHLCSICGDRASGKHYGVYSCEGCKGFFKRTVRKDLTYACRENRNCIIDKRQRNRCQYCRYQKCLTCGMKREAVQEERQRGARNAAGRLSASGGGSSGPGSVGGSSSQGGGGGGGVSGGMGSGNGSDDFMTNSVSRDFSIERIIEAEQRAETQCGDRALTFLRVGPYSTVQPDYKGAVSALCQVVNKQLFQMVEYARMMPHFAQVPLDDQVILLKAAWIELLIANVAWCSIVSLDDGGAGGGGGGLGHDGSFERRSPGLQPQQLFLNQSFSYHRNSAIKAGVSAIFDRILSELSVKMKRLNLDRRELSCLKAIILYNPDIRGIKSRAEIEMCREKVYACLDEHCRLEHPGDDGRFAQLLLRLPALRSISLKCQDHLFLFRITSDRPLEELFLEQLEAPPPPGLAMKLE
Experiment: Agonist activity at ecdysone receptor in Drosophila melanogaster S2 cells after 24 hr by luciferase reporter gene assay
Type: cell-based
Known log10 EC50 of a selection of molecules
Field: value | Transform: log10 | Quantity: EC50 | Unit: µM

# molecule, test.target, log10 EC50
rows = [
    ("CC(C)(C)N(NC(=O)c1ccccc1)C(=O)c1ccccc1[N+](=O)[O-]", "Ecdysone receptor (Drosophila melanogaster, UniProt P20153+P34021)", 1.19),
    ("Cc1ccc(C(=O)NN(C(=O)c2ccccc2Cl)C(C)(C)C)cc1C", "Ecdysone receptor (Drosophila melanogaster, UniProt P20153+P34021)", 1.82),
    ("Cc1cccc(C(=O)NN(C(=O)c2ccccc2Cl)C(C)(C)C)c1C", "Ecdysone receptor (Drosophila melanogaster, UniProt P20153+P34021)", 1.06),
]

[in] May I ask what log10 EC50 has been recorded for Cc1ccc(C(=O)NN(C(=O)c2cc(C)cc(C)c2)C(C)(C)C)cc1 ?
[out] 1.05

[in] Which measured log10 EC50 value corresponds to CCc1ccc(C(=O)NN(C(=O)c2ccccc2Cl)C(C)(C)C)cc1 ?
[out] 1.19

[in] What does the data say about its log10 EC50? Entry: COc1cccc(C(=O)NN(C(=O)c2cc(C)cc(C)c2)C(C)(C)C)c1C [METHOXYFENOZIDE]
[out] 1.22

* * *

molecular target: Ecdysone receptor (Drosophila melanogaster) (UniProt P34021+P20153); assay: Agonist activity at ecdysone receptor in Drosophila melanogaster S2 cells at 100 uM after 24 hr by luciferase reporter gene assay relative to 20-hydroxyecdysone; assay type: cell-based
Lab note: class by Efficacy, see A: < 50%; B: ≥ 50% and < 70%; C: ≥ 70%

# compound, label
measured = [
    ("COc1cccc(C(=O)NN(C(=O)c2cc(C)cc(C)c2)C(C)(C)C)c1C [METHOXYFENOZIDE]", "B"),
    ("CC(C)(C)N(NC(=O)c1ccccc1)C(=O)c1ccccc1Br", "B"),
    ("CC(C)CN(NC(=O)c1ccccc1)C(=O)c1ccccc1", "A"),
]

[in] Dear colleague, I would appreciate it if you could identify the bin for CC(C)(C)N(NC(=O)c1cccc(Br)c1)C(=O)c1ccccc1Cl and reply at your convenience.
[out] C

[in] # bin lookup: classify CC(C)(C)N(NC(=O)c1ccccc1)C(=O)c1ccccc1F by its Efficacy
[out] B

[in] In plain terms, what class is Cc1cccc(C(=O)NN(C(=O)c2ccccc2Cl)C(C)(C)C)c1 ?
[out] A

[in] Each compound maps to one class by Efficacy. Which class for Cc1ccc(C(=O)NN(C(=O)c2ccccc2Cl)C(C)(C)C)cc1 ?
[out] C

[in] Which category fits this record: CC(C)(C)N(NC(=O)c1ccc(Cl)cc1)C(=O)c1ccccc1 [HALOFENOZIDE]
[out] B

[in] Classify this compound: O=C(NN(C(=O)c1ccccc1)c1ccccc1)c1ccccc1
[out] A

[in] // bin(item) where item = CCCCCCC(=O)NN(C(=O)c1ccccc1Cl)C(C)(C)C
[out] A

[in] Hello team, could you let me know which band the following compound falls into: CC(C)(C)N(NC(=O)c1cccc(F)c1)C(=O)c1ccccc1Cl
[out] C

* * *

Recorded EC50 by entry
target: Ecdysone receptor (Drosophila melanogaster, UniProt P20153+P34021); experiment: Agonist activity at ecdysone receptor in Drosophila melanogaster B2 cells assessed as reduction in cell density
Give the value, in units of nM, as a plain number.

Some solved entries appear below for comparison.
# smiles.code, observed.result
measured = [
    ("CCc1ccc(C(=O)NN(C(=O)c2ccccc2Cl)C(C)(C)C)cc1", 219),
    ("CC(C)(C)N(NC(=O)c1ccccc1)C(=O)c1ccccc1[N+](=O)[O-]", 1100),
]

The record that follows has no EC50 shown yet.
[in] Item Cc1ccc(C(=O)NN(C(=O)c2ccccc2Cl)C(C)(C)C)cc1 has what recorded EC50?
[out] 219

* * *

Target: Ecdysone receptor (Drosophila melanogaster, UniProt P20153+P34021)
Sequence (P34021 whole entry): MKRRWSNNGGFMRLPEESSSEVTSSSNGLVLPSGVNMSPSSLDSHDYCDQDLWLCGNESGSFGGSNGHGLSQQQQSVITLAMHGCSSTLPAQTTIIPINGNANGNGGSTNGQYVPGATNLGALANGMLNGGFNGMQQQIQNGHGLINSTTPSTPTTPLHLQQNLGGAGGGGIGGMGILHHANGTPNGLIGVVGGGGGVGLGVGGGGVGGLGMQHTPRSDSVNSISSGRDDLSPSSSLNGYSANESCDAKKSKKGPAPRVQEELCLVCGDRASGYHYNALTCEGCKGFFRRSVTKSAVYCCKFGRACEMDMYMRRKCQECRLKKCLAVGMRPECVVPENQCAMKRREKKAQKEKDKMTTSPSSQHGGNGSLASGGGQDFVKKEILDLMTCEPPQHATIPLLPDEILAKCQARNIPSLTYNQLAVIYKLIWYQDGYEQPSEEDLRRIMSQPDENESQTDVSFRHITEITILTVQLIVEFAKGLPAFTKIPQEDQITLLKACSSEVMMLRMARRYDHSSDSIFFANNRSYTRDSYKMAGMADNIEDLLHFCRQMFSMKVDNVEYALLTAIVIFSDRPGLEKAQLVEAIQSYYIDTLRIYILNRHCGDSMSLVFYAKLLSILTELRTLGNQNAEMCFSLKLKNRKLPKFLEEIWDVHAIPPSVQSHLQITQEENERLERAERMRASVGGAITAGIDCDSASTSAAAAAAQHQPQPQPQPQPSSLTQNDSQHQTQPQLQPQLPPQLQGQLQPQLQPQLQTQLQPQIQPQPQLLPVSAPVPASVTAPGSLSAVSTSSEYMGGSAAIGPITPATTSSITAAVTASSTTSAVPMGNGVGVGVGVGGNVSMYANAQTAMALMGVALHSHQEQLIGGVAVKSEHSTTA
Sequence (P20153 whole entry): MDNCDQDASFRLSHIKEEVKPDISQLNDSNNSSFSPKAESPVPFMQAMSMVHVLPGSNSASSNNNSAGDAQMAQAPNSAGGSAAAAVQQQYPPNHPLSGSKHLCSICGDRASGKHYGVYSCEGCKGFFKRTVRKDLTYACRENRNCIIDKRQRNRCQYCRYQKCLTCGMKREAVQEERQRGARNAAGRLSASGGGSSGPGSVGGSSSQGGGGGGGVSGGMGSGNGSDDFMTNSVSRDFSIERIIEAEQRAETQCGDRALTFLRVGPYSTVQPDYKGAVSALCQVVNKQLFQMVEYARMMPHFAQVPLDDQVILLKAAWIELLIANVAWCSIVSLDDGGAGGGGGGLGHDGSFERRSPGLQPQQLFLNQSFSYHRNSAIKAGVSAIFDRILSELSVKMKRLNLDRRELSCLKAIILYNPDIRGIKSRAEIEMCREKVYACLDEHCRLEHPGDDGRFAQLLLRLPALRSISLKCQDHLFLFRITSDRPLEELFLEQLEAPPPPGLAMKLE
Experiment: Agonist activity at ecdysone receptor in Drosophila melanogaster S2 cells after 24 hr by luciferase reporter gene assay
Assay type: cell-based
measured.endpoint: EC50 (µM)
Response body: numeric value in µM, unit text excluded.

Previously resolved entries follow.
# smiles.code, test.target, EC50, µM
rows = [
    ("CC(C)(C)N(NC(=O)c1ccccc1)C(=O)c1ccccc1C(F)(F)F", "Ecdysone receptor (Drosophila melanogaster, UniProt P20153+P34021)", 33.9),
    ("COc1ccccc1C(=O)N(NC(=O)c1ccccc1)C(C)(C)C", "Ecdysone receptor (Drosophila melanogaster, UniProt P20153+P34021)", 120),
    ("CC(C)(C)N(NC(=O)c1ccc(Br)cc1)C(=O)c1ccccc1Cl", "Ecdysone receptor (Drosophila melanogaster, UniProt P20153+P34021)", 2.82),
]

# context switch: different molecule, same EC50
[in] Could you tell me which EC50 is on file for CCCc1ccc(C(=O)NN(C(=O)c2ccccc2Cl)C(C)(C)C)cc1 ?
[out] 9.77

Cited source: ChEMBL document CHEMBL3045195
